Values were extracted from paper PMC5540273.

Tested on: SGK2
experimental_parameters: concentration: 1 μM, replicates: in singlicate; n = 1;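 note: KINOMEscan kinase panel screen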
# maps each entry to its %Inh
endpoint_label: %Inh (%)

>>> value_observed("Cc1ccc(Oc2ccc(Nc3ncnc4cc[nH]c34)cc2C)cn1")
5
>>> value_observed("COC(=O)c1c(-c2ccccc2)c2cc(C)ccc2c(=O)n1Cc1ccccc1")
0
>>> value_observed("CN1C(=O)C(Nc2cc(Cl)c(O)c(Cl)c2)=C(c2ccc(Cl)cc2)C1=O")
0

---

# maps each entry to its %Inh
System: YSK1
Construct: gene STK25
experimental_parameters: concentration: 1 μM, replicates: in singlicate; n = 1
endpoint_label: %Inh

>>> value_observed("CCCC(=O)Nc1n[nH]c2ncc(-c3cccc4ccccc34)cc12 [SB-642057]")
"8%"
>>> value_observed("COc1cc2nccc(Nc3ccc(OCc4ccc(NC(C)=O)cc4)cc3)c2cc1OC.Cl [GW440135]")
"0%"
>>> value_observed("CCC(=O)c1c(-c2ccccc2)c2cc(Cl)ccc2c(=O)n1Cc1cc(S(C)(=O)=O)n(CC(F)F)n1")
"0%"
>>> value_observed("COc1cc2ncn(-c3cc(OCc4ccncc4Br)c(C(N)=O)s3)c2cc1OC [GW854278]")
"0%"
